B1: HDV Ribozyme (parent)
chain: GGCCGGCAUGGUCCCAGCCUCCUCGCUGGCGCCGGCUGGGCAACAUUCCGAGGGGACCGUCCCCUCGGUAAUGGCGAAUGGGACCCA

# Variants of: B1
# assay: self-cleavage, relative activity (ratio to wild type); higher = more cleavage; co-transcriptional
So I've got a bunch of variants here, and I need their self-cleavage values.
API doc: respond with a numeric literal and nothing else, no unit.

Asked: Using the record for G38C G54C , report its self-cleavage.
Given back: 0.237

Asked: Using the record for U27C C62G , report its self-cleavage.
Given back: 0.615

Asked: Using the record for G17A A43C , report its self-cleavage.
Given back: 0.0369

Asked: Using the record for C26G G73A , report its self-cleavage.
Given back: 0.57

Asked: Using the record for U9C C86G , report its self-cleavage.
Given back: 1.14

Asked: Using the record for U23G C66U , report its self-cleavage.
Given back: 0.65

Asked: Using the record for U37A C63A , report its self-cleavage.
Given back: 0.116

Asked: Using the record for G1C G59A , report its self-cleavage.
Given back: 0.19

Asked: Using the record for A45U A83C , report its self-cleavage.
Given back: 0.0875

Asked: Using the record for G1U U12C , report its self-cleavage.
Given back: 0.499

Asked: Using the record for C3G G80U , report its self-cleavage.
Given back: 0.0801

Asked: Using the record for C7G A43C , report its self-cleavage.
Given back: 0.111

Asked: Using the record for G6C C61G , report its self-cleavage.
Given back: 0.222

Asked: Using the record for G1C G74C , report its self-cleavage.
Given back: 0

Asked: Using the record for G2U G74C , report its self-cleavage.
Given back: 0

Asked: Using the record for C22U G39A , report its self-cleavage.
Given back: 0.185

Asked: Using the record for C62A U72C , report its self-cleavage.
Given back: 0.38

Asked: Using the record for G55C G68U , report its self-cleavage.
Given back: 1.08

Asked: Using the record for C21U C84A , report its self-cleavage.
Given back: 0.0755

Asked: Using the record for G17U C22U , report its self-cleavage.
Given back: 0.0959

Asked: Using the record for G50A G68U , report its self-cleavage.
Given back: 0.767

Asked: Using the record for G29C A70U , report its self-cleavage.
Given back: 0.0811
